activity, % sensitization listing for selected molecules.
- PROTOCOL: TRAIL sensitizers in caspase-8 expressing neuroblastoma cells, dose response, NB7 cells plus caspase-8, luminescence, panel (AID 652002)
- MEASUREMENT_PARAMETERS: NB7 neuroblastoma +caspase-8, no TRAIL, compound-alone cytotoxicity counter-screen, luminescence viability, NB7+Caspase-8, run 2; at 12.5 µM (top of the series) unless noted
Field: numeric (%). Do not append units.

Use the examples below as a reference point.
molecule=Clc1nc(Cl)c2ncn(-c3ccccc3)c2n1 measure_unit=% assay_result=-11.5
molecule=CC1(C)N=C(N)N=C(N)N1c1ccc(CCCCc2ccccc2)cc1 measure_unit=% assay_result=66.9
molecule=CCOC(=O)c1ccc(N/C=C/C(=O)c2ccco2)cc1 measure_unit=% assay_result=6.5
molecule="O=C1CCCCC1Sc1nnc(-c2ccc3c(c2)OCO3)o1 (stereo not drawn)" measure_unit=% assay_result=21.7
molecule=COc1ccccc1/C=C/C=N/n1c(-c2cc(-c3ccccc3)n[nH]2)n[nH]c1=S measure_unit=% assay_result=-34.4
molecule=CC(C)C[C@H](NC(=O)c1nc[nH]c1C(=O)N[C@@H](CCCCNC(=O)OC(C)(C)C)C(=O)OC(C)(C)C)C(=O)OCc1ccccc1 measure_unit=% assay_result=-28.8
molecule=COc1ccc(-c2cc(C(=O)N/N=C/c3cccnc3)c3ccccc3n2)cc1 measure_unit=% assay_result=40.4
molecule=O=C(Nc1ccc2c(c1)OCO2)c1ccc2c(c1)OCO2 measure_unit=% assay_result=33.4
molecule=Cn1nnc(NC(=O)c2ccc(C(C)(C)C)cc2)n1 measure_unit=% assay_result=39.7
molecule=CCCCc1nc(NCCN)c(C#N)c2c1CSC(C)(C)C2 measure_unit=% assay_result=-6.28

As a next step, examine the molecule that follows.
// recorded activity, % sensitization for C=Cc1ccc(Cn2c(C)c(C(=O)NCc3cccc(C(F)(F)F)c3)sc2=O)cc1 : 6.45
